These data points were gathered from ChEMBL document CHEMBL1143703.

test: Inhibition of chymotrypsin-like activity of rabbit reticulocyte 20S proteasome; parameters: species or system Oryctolagus cuniculus
pKi: −log10 of the molar value. Residues, ends and D or L forms follow the SMILES beside them. *: point of attachment. Cbz = O=C(OCc1ccccc1)*; Boc = CC(C)(C)OC(=O)*; NHBn = c1ccc(CN*)cc1; Bn = c1ccc(C*)cc1
PROPERTY: pKi

Using the record for "C[C@H](NC(=O)[C@H](Cc1ccc(OCc2ccccc2)c(I)c1)NC(=O)OC(C)(C)C)C(=O)N[C@@H](Cc1c[nH]c2c(Br)cccc12)C(=O)O" , state its measured pKi.
5.80

Using the record for "C[C@H](NC(=O)[C@H](Cc1ccc(OCc2ccccc2)cc1)NC(=O)OC(C)(C)C)C(=O)N[C@@H](Cc1c[nH]c2ccccc12)C(=O)Nc1ccc(O)cc1" , state its measured pKi.
4.18

Using the record for "CC(C)C[C@H](NC(=O)[C@H](Cc1ccc(OCc2ccccc2)cc1)NC(=O)OC(C)(C)C)C(=O)N[C@@H](Cc1c[nH]c2ccccc12)C(=O)NCCCCNC(=O)OC(C)(C)C" , state its measured pKi.
4.09

Using the record for "CNC(=O)[C@H](Cc1c[nH]c2c(Br)cccc12)NC(=O)[C@H](C)NC(=O)[C@H](Cc1ccc(OCc2ccccc2)c(I)c1)NC(=O)OC(C)(C)C" , state its measured pKi.
4.23

Using the record for "COC(=O)[C@H](Cc1c[nH]c2c(Br)cccc12)NC(=O)[C@H](CC(N)=O)NC(=O)[C@H](Cc1ccc(OCc2ccccc2)c(I)c1)NC(=O)OC(C)(C)C" , state its measured pKi.
4.85

Using the record for C[C@H](NC(=O)[C@@H](N)Cc1ccc(OCc2ccccc2)cc1)C(=O)N[C@@H](Cc1c[nH]c2ccccc12)C(=O)NCc1ccccc1 (H-Tyr(Bn)-Ala-Trp-NHBn) , state its measured pKi.
6.32

1: COC(=O)[C@H](Cc1c[nH]c2ccccc12)NC(=O)[C@H](C)NC(=O)[C@H](Cc1ccc(OCc2ccccc2)cc1)NC(=O)OC(C)(C)C (Boc-Tyr(Bn)-Ala-Trp-OMe)
2: CC(C)C[C@@H](C=O)NC(=O)[C@H](CC(C)C)NC(=O)[C@H](CC(C)C)NC(=O)OCc1ccccc1 [MG-132] (Cbz-Leu-Leu-Leu-aldehyde)
// which entry reports the smaller pKi, 1 or 2 ? Output the label that corresponds to your choice.
1
(1: 4.35, 2: 7.12)

A: CC(C)(C)OC(=O)NCCCC[C@H](NC(=O)[C@H](Cc1ccc(OCc2ccccc2)cc1)NC(=O)OC(C)(C)C)C(=O)N[C@@H](Cc1c[nH]c2ccccc12)C(=O)Nc1ccc(O)cc1
B: CC(C)C[C@H](NC(=O)[C@@H](N)Cc1ccc(OCc2ccccc2)cc1)C(=O)N[C@@H](Cc1c[nH]c2ccccc12)C(=O)NCCCCN
// which entry reports the smaller pKi, A or B ? Output the label that corresponds to your choice.
A
(A: 4.18, B: 5.43)

----------
species on record: Oryctolagus cuniculus; assay: Inhibition of chymotrypsin-like activity of rabbit reticulocyte 20S proteasome at 100 uM
Residues, ends and D or L forms follow the SMILES beside them. *: point of attachment. Boc = CC(C)(C)OC(=O)*; NHBn = c1ccc(CN*)cc1; NHPh = c1ccc(N*)cc1; Bn = c1ccc(C*)cc1
Reported inhibition values for the following molecules.

Using the record for "CC(C)(C)OC(=O)N[C@@H](Cc1ccc(OCc2ccccc2)cc1)C(=O)N[C@@H](CCCN(C(=N)NC(=O)OCc1ccccc1)C(=O)OCc1ccccc1)C(=O)N[C@@H](Cc1c[nH]c2ccccc12)C(=O)NCc1ccccc1" , state its measured inhibition.
< 20%

Using the record for "COC(=O)[C@@H]1Cc2c[nH]c3c(cccc23)-c2ccc(cc2OC)C[C@H](NC(=O)OC(C)(C)C)C(=O)N[C@@H](CC(C)C)C(=O)N1" , state its measured inhibition.
< 20%

Using the record for "COC(=O)[C@H](Cc1c[nH]c2c(Br)cccc12)NC(=O)[C@H](C)NC(=O)[C@H](Cc1ccc(OCc2ccccc2)c(I)c1)NC(=O)OC(C)(C)C" , state its measured inhibition.
< 20%

Using the record for "CNC(=O)[C@@H](Cc1c[nH]c2c(-c3ccc(C[C@H](NC(=O)OC(C)(C)C)C(=O)N[C@H](CC(C)C)C(=O)OC)cc3OCc3ccccc3)cccc12)NC(=O)OCc1ccccc1" , state its measured inhibition.
< 20%

Using the record for "CC(C)(C)OC(=O)N[C@@H](Cc1ccc(OCc2ccccc2)cc1)C(=O)N[C@@H](CCCN(C(=N)NC(=O)OCc1ccccc1)C(=O)OCc1ccccc1)C(=O)N[C@@H](Cc1c[nH]c2ccccc12)C(=O)Nc1ccc(O)cc1" , state its measured inhibition.
< 20%

Using the record for CC(C)(C)OC(=O)N[C@@H](Cc1ccc(OCc2ccccc2)cc1)C(=O)NCC(=O)N[C@@H](Cc1c[nH]c2ccccc12)C(=O)O (Boc-Tyr(Bn)-Gly-Trp-OH) , state its measured inhibition.
< 20%

Using the record for "CCOC(=O)[C@H](Cc1c[nH]c2c(Br)cccc12)NC(=O)[C@H](CC(C)C)NC(=O)[C@H](Cc1ccc(OC)c(I)c1)NC(=O)OC(C)(C)C" , state its measured inhibition.
< 20%

Using the record for "CNC(=O)[C@@H](Cc1c[nH]c2c(-c3ccc(C[C@H](NC(=O)OC(C)(C)C)C(=O)N[C@H](C)C(=O)OC)cc3OCc3ccccc3)cccc12)NC(=O)OCc1ccccc1" , state its measured inhibition.
20%

Using the record for C[C@H](NC(=O)[C@H](Cc1ccc(OCc2ccccc2)cc1)NC(=O)OC(C)(C)C)C(=O)N[C@@H](Cc1c[nH]c2ccccc12)C(=O)NCc1ccccc1 (Boc-Tyr(Bn)-Ala-Trp-NHBn) , state its measured inhibition.
< 20%

Using the record for "COC(=O)[C@@H]1Cc2c[nH]c3c(cccc23)-c2ccc(cc2OC)C[C@H](NC(=O)OC(C)(C)C)C(=O)N[C@@H](C)C(=O)N1" , state its measured inhibition.
< 20%

More entries:
Using the record for CC(C)C[C@H](NC(=O)[C@H](Cc1ccc(OCc2ccccc2)cc1)NC(=O)OC(C)(C)C)C(=O)N[C@@H](Cc1c[nH]c2ccccc12)C(=O)Nc1ccccc1 (Boc-Tyr(Bn)-Leu-Trp-NHPh) , state its measured inhibition.
< 20%

Using the record for C[C@H](NC(=O)[C@H](Cc1ccc(OCc2ccccc2)cc1)NC(=O)OC(C)(C)C)C(=O)N[C@@H](Cc1c[nH]c2ccccc12)C(=O)O (Boc-Tyr(Bn)-Ala-Trp-OH) , state its measured inhibition.
< 20%

----------
organism: Oryctolagus cuniculus; assay: Activation of trypsin-like activity of rabbit reticulocyte 20S proteasome relative to control
Residues, ends and D or L forms follow the SMILES beside them. *: point of attachment. Boc = CC(C)(C)OC(=O)*; Bn = c1ccc(C*)cc1
PROPERTY: Fold change

Using the record for COC(=O)[C@H](Cc1c[nH]c2ccccc12)NC(=O)[C@H](C)NC(=O)[C@H](Cc1ccc(O)cc1)NC(=O)OC(C)(C)C (Boc-Tyr-Ala-Trp-OMe) , state its measured Fold change.
6

a: COC(=O)[C@H](Cc1c[nH]c2c(Br)cccc12)NC(=O)[C@H](CC(C)C)NC(=O)[C@H](Cc1ccc(OCc2ccccc2)c(I)c1)NC(=O)OC(C)(C)C
b: COC(=O)[C@H](Cc1c[nH]c2ccccc12)NC(=O)[C@H](C)NC(=O)[C@H](Cc1ccc(OCc2ccccc2)cc1)NC(=O)OC(C)(C)C (Boc-Tyr(Bn)-Ala-Trp-OMe)
Between the two listed entries a and b , which has its Fold change at the higher number? Output the label that corresponds to your choice.
b

----------
organism: Oryctolagus cuniculus; assay: Activation of chymotrypsin-like activity of rabbit reticulocyte 20S proteasome relative to control
Residues, ends and D or L forms follow the SMILES beside them. *: point of attachment. Boc = CC(C)(C)OC(=O)*; NHBn = c1ccc(CN*)cc1; NHPh = c1ccc(N*)cc1; Bn = c1ccc(C*)cc1
PROPERTY: Fold change

Using the record for CC(C)(C)OC(=O)N[C@@H](Cc1ccc(OCc2ccccc2)cc1)C(=O)N[C@@H](CC(N)=O)C(=O)N[C@@H](Cc1c[nH]c2ccccc12)C(=O)Nc1ccccc1 (Boc-Tyr(Bn)-Asn-Trp-NHPh) , state its measured Fold change.
1.5

Using the record for "CC(C)(C)OC(=O)NCCCCNC(=O)[C@H](Cc1c[nH]c2ccccc12)NC(=O)[C@H](CCCCNC(=O)OC(C)(C)C)NC(=O)[C@H](Cc1ccc(OCc2ccccc2)cc1)NC(=O)OC(C)(C)C" , state its measured Fold change.
1.6

Using the record for "C[C@H](NC(=O)[C@H](Cc1ccc(OCc2ccccc2)cc1)NC(=O)OC(C)(C)C)C(=O)N[C@@H](Cc1c[nH]c2ccccc12)C(=O)NCCCCNC(=O)OC(C)(C)C" , state its measured Fold change.
1.5

Using the record for "CC(C)(C)OC(=O)NCCCCNC(=O)[C@H](Cc1c[nH]c2ccccc12)NC(=O)[C@H](CC(N)=O)NC(=O)[C@H](Cc1ccc(OCc2ccccc2)cc1)NC(=O)OC(C)(C)C" , state its measured Fold change.
1.6

Using the record for CC(C)(C)OC(=O)NCCCC[C@H](NC(=O)[C@H](Cc1ccc(OCc2ccccc2)cc1)NC(=O)OC(C)(C)C)C(=O)N[C@@H](Cc1c[nH]c2ccccc12)C(=O)NCc1ccccc1 (Boc-Tyr(Bn)-Lys(Boc)-Trp-NHBn) , state its measured Fold change.
1.3

Using the record for CC(C)C[C@H](NC(=O)[C@H](Cc1ccc(OCc2ccccc2)cc1)NC(=O)OC(C)(C)C)C(=O)N[C@@H](Cc1c[nH]c2ccccc12)C(=O)NCc1ccccc1 (Boc-Tyr(Bn)-Leu-Trp-NHBn) , state its measured Fold change.
1.3

Using the record for C[C@H](NC(=O)[C@H](Cc1ccc(OCc2ccccc2)cc1)NC(=O)OC(C)(C)C)C(=O)N[C@@H](Cc1c[nH]c2ccccc12)C(=O)Nc1ccccc1 (Boc-Tyr(Bn)-Ala-Trp-NHPh) , state its measured Fold change.
1.4
